- Test system: HT29 colon
- test-description: NCI tumour cell line growth inhibition, 48 h
Quick reference for TGI among some compounds

| compound | censoring-operator | TGI / µM |
| --- | --- | --- |
| C[C@]12CC[C@@H]3c4ccc(O)cc4CC[C@H]3[C@@H]1CC[C@@H]2NS(=O)(=O)c1cccc(Br)c1 | = | 12.7 |
| COc1cc(/C=C2\C(=O)N(c3c(Cl)cccc3Cl)c3ccccc32)cc(OC)c1O | = | 8.62 |
| CNC(=O)OCc1nc(S(C)=O)n(C)c1COC(=O)NC (configuration not stated) | > | 100 |
| COc1cc2cc(C(=O)O)[nH]c2cc1OCc1ccccc1 | > | 100 |
| C=CCSc1nn(CC=C)cc2ncnc1-2 | > | 100 |
| O=C(c1nsc(Cl)c1Cl)N1CCCCC1 | > | 100 |
| CCC(=S)N(C)O | = | 24.1 |

----------
- System: MDA-MB-231 breast
- test-description: NCI tumour cell line growth inhibition, 48 h
Quick reference for TGI among some compounds

| compound | measurement-units | censoring-operator | TGI |
| --- | --- | --- | --- |
| C=CC1=C(C)C2=NC1=CC1=NC(=C(CC)/C1=C/O)C=C1C=C3C(=O)C(C(=O)OC)C(=C4NC(=C2)C(C)C4CCC(=O)OC/C=C(\C)CCCC(C)CCCC(C)CCCC(C)C)C3=N1 (configuration not stated) (tested in a mixture with another compound) | µM | > | 100 |
| C=CC(=O)Nc1cc2c(Nc3ccc(OCc4ccccn4)c(Cl)c3)ncnc2cc1OCCN1CCOCC1 | µM | = | 34.2 |
| OCCOCCO[P+]1(OCCOCCO)n2c3ccc2C(c2ccccc2)=C2C=CC(=N2)C(c2ccccc2)=c2ccc(n21)=C(c1ccccc1)C1=NC(=C3c2ccccc2)C=C1 | µM | = | 0.247 |
| CCOC(=O)C(=Cc1ccc(Br)cc1)C(=O)OCC | µM | = | 5.37 |
| COc1ccc(OC)c(C2CCc3cnc4nc(N)nc(N)c4c3C2)c1 (configuration not stated) | µM | > | 100 |
| O=C(c1cccs1)c1c(C(F)(F)F)n([O-])c2cc(F)c(F)cc2[n+]1=O | µM | = | 3.32 |
| O=C1/C(=C\c2ccccc2)c2ccccc2N1Cc1ccccc1 | µM | = | 13.3 |
| Cc1ccc(C2SC(N)=Nc3c2c(C)nn3C(=O)c2ccncc2)cc1 (configuration not stated) | µM | > | 10 |
| O=C(Nc1ccc(-n2cc(-c3ccncc3)c(-c3ccc(Cl)c(O)c3)n2)cc1)c1cc(Cl)cc(Cl)c1 | µM | = | 4.01 |
| CCOC(=O)c1cc(C(=O)c2cc(OC)cc(OC)c2)n2ncccc12 | µM | > | 100 |
| O=C(c1nsc(Cl)c1Cl)N1CCCCC1 | µM | > | 100 |
| CCNC1CC(C(C)(C)NCC)CC=C1C (configuration not stated) | µM | > | 100 |
| CCCCCCCCCCCCCCCCCCNc1ccn(C2OC(CO)C(OP(=O)(O)OCC3CCC(n4ccc(N)nc4=O)O3)C2O)c(=O)n1 (configuration not stated) | µM | > | 100 |
| CC[n+]1[b-](C(C)(C)C)n(/N=C(\C)C(C)(C)C)[b-](C(C)(C)C)[n+]1CC | µM | > | 100 |
| CN(C)CCCC1(c2ccc(F)cc2)OCc2cc(-c3ccc4cc[nH]c4c3)ccc21 (configuration not stated) | µM | = | 3.22 |
| Cc1ccc(S(=O)(=O)n2ccn3c(=O)cc(C)nc23)cc1 | µM | > | 10 |
| Cc1cc(N2CCN(C)CC2)nc(NC2CCCC(Nc3ccnc4cc(Cl)ccc34)C2)n1 (configuration not stated) | µM | = | 4.25 |
| COC(=O)C(Cc1ccccc1)NS(=O)(=O)c1ccc(-c2c3nc(c(-c4ccc(S(=O)(=O)NC(Cc5ccccc5)C(=O)OC)cc4)c4ccc([nH]4)c(-c4ccc(S(=O)(=O)NC(Cc5ccccc5)C(=O)OC)cc4)c4nc(c(-c5ccc(S(=O)(=O)NC(Cc6ccccc6)C(=O)OC)cc5)c5ccc2[nH]5)C=C4)C=C3)cc1 (configuration not stated) | µM | > | 100 |
| CC[C@H](CCCCC1CC[C@@H]2CC(=O)C[C@H]12)OC (some centres not stated) | µM | > | 100 |
| O=C1c2c(Br)sc(Br)c2[C@H]2NC(=S)O[C@@H]12 | µM | = | 32.2 |
| c1ccc(-c2cc(-c3cc(-c4ccccn4)[nH]n3)n[nH]2)nc1 | µM | > | 100 |
| COC(=O)C1=NN2c3ccccc3CN([C@@H](C)c3ccccc3)C(=O)[C@@H]2C1 | µM | > | 100 |
| Cc1ccnc2c1NC(=O)c1cccnc1N2C1CC1 | µM | > | 100 |
| C/C=C(/C)C(=O)OC1C=C(CO)C(=O)C(OC(=O)/C(C)=C\C)C1C(C)C (configuration not stated) | µM | = | 1.9 |
| O=C1C(Nc2ccccn2)=C(I)C(=O)c2ncccc21 | µM | = | 4.86 |
| COc1cc(OC)c(/C=N/N=C(\N)NO)c(OC)c1 | µM | > | 100 |
